test: Blockade of CNGA1/CNGB1 expressed in Xenopus oocyte by electrophysiological method
MEASURED_PARAMETER: Kd (µM)

Here are 3 compounds together with their reported answers.
CCCCNc1ccc(C(=O)OCCN(CCCC)CCCC)cc1 : 1.1
CCCCNc1ccc(C(=O)OCCCCN(CCCC)CCCC)cc1 : 1.3
CCCCCCCCNc1ccc(C(=O)OCCN(C)C)cc1 : 1.3

1: CCCCCCNc1ccc(C(=O)OCCN(C)C)cc1
2: CN(C)CCOC(=O)c1ccc(NC2CCCCC2)cc1
Ask: # compare Kd for 1 vs 2 ; return the one with the smaller value Choose, then provide that item's label.
Reply: 1
